These entries and their values trace back to patent US5166214A.

- targetEntity: Acyl-CoA: Cholesterol Acyltransferase (ACAT) (Rattus norvegicus)
- Construct: Microsomes were obtained by differential centrifugation; from tissue; host or cells: liver microsomes of male Sprague Dawley rats
- Sequence (Q7TQM4 1-524): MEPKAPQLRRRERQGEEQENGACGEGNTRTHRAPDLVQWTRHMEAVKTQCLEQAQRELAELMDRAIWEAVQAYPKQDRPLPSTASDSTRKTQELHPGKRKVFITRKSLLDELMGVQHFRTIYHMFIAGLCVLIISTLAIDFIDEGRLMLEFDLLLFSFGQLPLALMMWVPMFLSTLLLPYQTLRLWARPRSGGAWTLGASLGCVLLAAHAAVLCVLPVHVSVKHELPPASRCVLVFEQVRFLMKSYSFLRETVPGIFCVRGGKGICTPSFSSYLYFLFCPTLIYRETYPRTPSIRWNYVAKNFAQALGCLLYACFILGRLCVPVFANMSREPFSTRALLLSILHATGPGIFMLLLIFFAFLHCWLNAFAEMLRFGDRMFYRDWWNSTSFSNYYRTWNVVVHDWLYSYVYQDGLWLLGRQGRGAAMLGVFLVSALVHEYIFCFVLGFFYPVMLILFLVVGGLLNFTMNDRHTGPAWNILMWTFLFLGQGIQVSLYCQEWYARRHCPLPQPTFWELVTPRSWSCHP
- assayMethodText: Inhibition of acyl-CoA: cholesterol acyltransferase (ACAT) in hepatic microsomes (in vitro)
- Type: biochemical, rat (male Sprague Dawley)
- studyConditions: In Vitro ACAT IC50, rat hepatic microsomes, 75 μM 14C-oleoyl-CoA, pH 7.4, 37° C.
pIC50: −log10 of the molar value.
measuredQuantity: pIC50

1. CCCCCCCN(CCCCCSc1nc(-c2ccc(N(C)C)cc2)c(-c2ccc(N(C)C)cc2)[nH]1)C(=O)Oc1ccccc1 = 6.92
2. CCCCCCCN(CCCCCSc1nc(-c2ccc(OC)cc2)c(-c2ccc(OC)cc2)[nH]1)C(=O)Oc1ccccc1 = 6.19
3. CCCCCCCN(CCCCCSc1nc(C(C)C)c(C(C)C)[nH]1)C(=O)Oc1ccccc1 = 6.51
4. CCCCCCCN(CCCCCSc1nc(-c2ccccc2)c(-c2ccccc2)[nH]1)C(=O)Oc1ccc(F)cc1 = 8.00
